Test Target: Adenosine receptor A2a (Homo sapiens)
Sequence (P29274 whole entry): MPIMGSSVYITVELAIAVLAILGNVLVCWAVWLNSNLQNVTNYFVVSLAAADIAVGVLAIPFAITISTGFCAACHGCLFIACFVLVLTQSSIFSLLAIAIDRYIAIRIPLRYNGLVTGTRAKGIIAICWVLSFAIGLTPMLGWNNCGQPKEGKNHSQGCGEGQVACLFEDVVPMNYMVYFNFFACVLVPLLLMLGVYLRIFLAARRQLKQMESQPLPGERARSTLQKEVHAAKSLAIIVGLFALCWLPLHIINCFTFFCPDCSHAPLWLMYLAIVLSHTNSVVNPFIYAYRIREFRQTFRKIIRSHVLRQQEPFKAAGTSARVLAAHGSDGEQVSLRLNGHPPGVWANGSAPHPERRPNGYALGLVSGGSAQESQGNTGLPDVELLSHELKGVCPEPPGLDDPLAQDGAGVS
Protocol Notes: Displacement of [3H]CGS-21680 from human adenosine A2A receptor transfected in HEK293 cells
Lab note: anything with Ki below 500 nM is marked Condition met; values at 500 nM or higher are marked Condition not met.

Query: Input CCNC(=O)[C@H]1S[C@@H](n2cnc3c(NC4CC4)nc(Cl)nc32)[C@H](O)[C@@H]1O ; condition: Ki strictly below 500 nM. Does it hold?
Response: Condition not met

Query: Input CCNC(=O)[C@H]1S[C@@H](n2cnc3c(NCc4ccccc4C)nc(Cl)nc32)[C@H](O)[C@@H]1O ; condition: Ki strictly below 500 nM. Does it hold?
Response: Condition met

Query: Input CNc1nc(Cl)nc2c1ncn2[C@@H]1S[C@H](C(=O)NC2CC2)[C@@H](O)[C@H]1O ; condition: Ki strictly below 500 nM. Does it hold?
Response: Condition not met

Query: Input O=C(NC1CC1)[C@H]1S[C@@H](n2cnc3c(NC4CC4)nc(Cl)nc32)[C@H](O)[C@@H]1O ; condition: Ki strictly below 500 nM. Does it hold?
Response: Condition met
